Reported CC50 at 5 days values for a set of compounds
Test: in vitro
Details: human, uninfected MT-4 cells
QUANTITY: CC50 at 5 days (µM)

[
  {
    "MOLECULAR STRING": "CC1=NO[C@@]2(CC[C@H](C)N3C[C@H]2n2cc(C(=O)NCc4ccc(F)cc4F)c(=O)c(OCOC(=O)CC(C)(C)COP(=O)(O)O)c2C3=O)C1",
    "MEASUREMENT": 44.3
  },
  {
    "MOLECULAR STRING": "COC1=NO[C@@]2(CC[C@H](C)N3C[C@H]2n2cc(C(=O)NCc4ccc(F)cc4F)c(=O)c(OCOC(=O)OC[C@H](OP(=O)(O)O)C(C)C)c2C3=O)C1",
    "MEASUREMENT": 36.9
  },
  {
    "MOLECULAR STRING": "COC1=NO[C@@]2(CC[C@H](C)N3C[C@H]2n2cc(C(=O)NCc4ccc(F)cc4F)c(=O)c(OCOP(=O)(O)O)c2C3=O)C1",
    "MEASUREMENT": 15.4
  },
  {
    "MOLECULAR STRING": "CC1=NO[C@@]2(CC[C@H](C)N3C[C@H]2n2cc(C(=O)NCc4ccc(F)cc4F)c(=O)c(OCOC(=O)OC[C@@H](C)COP(=O)(O)O)c2C3=O)C1",
    "MEASUREMENT": 15.3
  },
  {
    "MOLECULAR STRING": "COC1=NO[C@@]2(CC[C@H](C)N3C[C@H]2n2cc(C(=O)NCc4ccc(F)cc4F)c(=O)c(OC(=O)OC[C@H](C)OP(=O)(O)O)c2C3=O)C1",
    "MEASUREMENT": 17.6
  }
]
